tested on: SN12C renal; assay: NCI-60 one-dose screen, 48 h (100 = growth as untreated, 0 = no growth, -100 = all killed); details: 10 µM unless noted
Compounds without any hit were thinned out: in the full panel of roughly 83,000, 20% have a hit.
parameter: growth (%)

| structure.smiles | unit.name | reading |
| --- | --- | --- |
| S=C(N/N=C/c1cc(Cl)cc(Cl)c1)NC12CC3CC(CC(C3)C1)C2 | % | 88.6 |
| COc1nc(OC)nc(-c2cc(C(=O)c3ccc(Br)cc3)n3cc(C)cc(C)c23)n1 | % | 48 |
| CCOC(=O)c1cc(-c2ccc(OC)cc2)[nH]c1NNC(=O)CCOC | % | 107 |
| CNc1nc2ncn(C)c2c(=O)[nH]1 | % | 92 |
| C/C(=N\Nc1ccc(Cl)cn1)c1ccc2ccccc2n1 | % | 18 |
| CCCC(CCC)Oc1ccc(CCCC2=C(O)c3ccccc3C(=O)C2=O)cc1 | % | 45.5 |

* * *

List of growth values.
system: SF-268 CNS; assay: NCI-60 one-dose screen, 48 h (100 = growth as untreated, 0 = no growth, -100 = all killed); settings: 10 µM unless noted
Compounds without any hit were thinned out: in the full panel of roughly 83,000, 20% have a hit.

| compound | system.name | growth [%] |
| --- | --- | --- |
| COC(=O)Nc1nc2ccc(C(=O)c3ccccc3N(C)C3COC3)cc2[nH]1 | SF-268 CNS | 45.7 |
| CC(=O)c1ccc2c(c1)c1ccccc1n2C | SF-268 CNS | 101 |
| Nc1nc2c(c3cnccc13)C(c1cccc(Cl)c1)Cc1cnccc1-2 (stereo not given) | SF-268 CNS | 20.7 |
| CN1C(=O)C(=Cc2coc3ccc(Br)cc3c2=O)C(=O)N(C)C1=O | SF-268 CNS | 97.6 |
| O=S(=O)(O)c1ccc2c(c1)Sc1cc(S(=O)(=O)O)ccc1O2 | SF-268 CNS | 112 |
| O=C(/C=C\c1ccc(NCc2ccc(C(=O)O)cc2)cc1)CCl | SF-268 CNS | 74 |
| COc1cc(/C=C/C(=O)/C=C(/C=C/c2ccc(OC(C)=O)c(OC)c2)OB(F)F)ccc1OC(C)=O | SF-268 CNS | 81.2 |
| C=CC1CN2CCC1CC2C(O)c1ccnc2ccc(OC)cc12 (stereo not given) | SF-268 CNS | 103 |
| Cc1c([C@H](C(Cl)Cl)[C@H](O)[C@H]2C[C@H](C)C(=O)O2)ccc2c1C(=O)[C@H]1[C@H]2C[C@@H](Br)[C@@]23O[C@@H](CO[C@H]2O)CC13C (stereo not given in full) | SF-268 CNS | 33 |
| O=C1C=C(OCC=C(C(F)(F)F)C(F)(F)F)c2ccccc2C1=O | SF-268 CNS | 0.611 |

* * *

List of growth values.
test system: SK-MEL-5 melanoma; assay: NCI-60 one-dose screen, 48 h (100 = growth as untreated, 0 = no growth, -100 = all killed); details: 10 µM unless noted
About 83,000 compounds went through this panel and 20% of them were active in at least one assay; those are over-represented in the sample as a whole.

| structure.smiles | system.name | unit.name | growth |
| --- | --- | --- | --- |
| COc1ccc(OC)c(Cn2cc3c(c2-c2ccccc2)CCc2cnoc2-3)c1 | SK-MEL-5 melanoma | % | 40.2 |
| O=C(N/N=C/c1ccccc1Cl)c1cccc2ccccc12 | SK-MEL-5 melanoma | % | 104 |
| Brc1ccc(-c2nc3ccccc3s2)cc1 | SK-MEL-5 melanoma | % | 94.4 |
| CC[C@@H](C)/C=C(C)/C=C/C(=O)c1c(O)c(-c2ccc(OC(=O)[C@@]34CC[C@@](C)(C(=O)O3)C4(C)C)cc2)cn(O)c1=O | SK-MEL-5 melanoma | % | -4 |
| Cc1nc2ccccc2c(=O)n1-c1cccc(OCc2cn(-c3cccc(O)c3)nn2)c1 | SK-MEL-5 melanoma | % | 87 |
| O=C(C(=O)N1CCOCC1)c1ccc(O[C@H]2O[C@H](CO)[C@@H](O)[C@H](O)[C@@H]2O)cc1 | SK-MEL-5 melanoma | % | 97.4 |
| Nc1nc(-c2cccc(Br)c2)cc(-c2cc3ccccc3oc2=O)n1 | SK-MEL-5 melanoma | % | 89.7 |
| CCNc1nnc(COc2ccc(CNC(=O)CCCC/C=C/C(C)C)cc2OC)o1 | SK-MEL-5 melanoma | % | 102 |
| Cc1nc(N)sc1C(=O)NCCO | SK-MEL-5 melanoma | % | 103 |
| COc1ccc(Cn2cc3c(c2)-c2oncc2CC3)cc1OC | SK-MEL-5 melanoma | % | 9.72 |
